Experiment: log P by HPLC
Assay type: physicochemical
Settings: HPLC, gradient method, acetonitrile/0.1% aqueous phosphoric acid; EEC directive 79/831 Annex V. A8
QUANTITY: logP
# print the numeric value only

Given item Cc1nc2nc(Cl)c(-c3c(F)cccc3Cl)c(NC3CCCC3)n2n1 , the value recorded as its logP is 3.29

logP in this record for Fc1cccc(F)c1-c1c(Cl)nc2nc(C3CC3)nn2c1N1CCOCC1 : 2.78

Measured logP of Cc1nc2nc(Cl)c(-c3ccc(F)cc3F)c(N(C)Cc3ccco3)n2n1 : 3.1

Kindly note the recorded logP for Cc1nc2nc(Cl)c(-c3ccccc3Cl)c(N3CCCCC3)n2n1 , which is 3.48

GET /value?item= C=C(C)CN(C)c1c(-c2ccc(F)cc2F)c(Cl)nc2nc(C(F)(F)F)nn12 &field=logP returns 4.44

Measured logP, COCCN(C)c1c(-c2ccc(F)cc2F)c(Cl)nc2nc(C(F)(F)F)nn12 : 3.73

// recorded logP for CCOC(=O)CN(CC)c1c(-c2ccc(F)cc2F)c(Cl)nc2nc(C(F)(F)F)nn12 : 4.05

Measured logP of Cc1nc2nc(Cl)c(-c3c(F)cc(F)cc3F)c(N3CCCC(C)C3)n2n1 (centres unmarked) : 3.9

The recorded logP for CCOC(=O)CN(CC)c1c(-c2ccccc2Cl)c(Cl)nc2nc(C)nn12 is 3.11

So, C=C(C)CN(CC)c1c(-c2c(F)cc(F)cc2F)c(Cl)nc2nc(C(F)(F)F)nn12 [compound 10] ? Its logP was 4.73

Form: compound = Cc1nc2nc(Cl)c(-c3c(F)cc(F)cc3F)c(N3CC=CCC3)n2n1 ; logP = 3.2

According to the records, this compound Cc1nc2nc(Cl)c(-c3ccc(F)cc3F)c(NCC3CC3)n2n1 displays logP of 2.77

Noted for CC1=CCCN(c2c(-c3c(F)cc(F)cc3F)c(Cl)nc3nc(C)nn23)C1 : its logP reads 3.57

# compound Cc1nc2nc(Cl)c(-c3ccc(F)cc3Cl)c(N3CCCCN3)n2n1 ; its logP = 2.94

Short answer for CC(C)(Nc1c(-c2c(F)cc(F)cc2F)c(Cl)nc2nc(C(F)(F)F)nn12)C(F)(F)F : logP was 4.37

Quick note, logP for CCN(CC1CCCO1)c1c(-c2ccc(F)cc2F)c(Cl)nc2nc(C)nn12 (centres unmarked) landed at 3.18

// sample Cc1nc2nc(Cl)c(-c3c(F)cc(F)cc3F)c(N3CCCC3)n2n1 , its logP was 2.86

Data point: COCCNc1c(-c2ccc(F)cc2Cl)c(Cl)nc2nc(C3CC3)nn12 ; logP = 3.07

Value of measured logP for the entry Cc1nc2nc(Cl)c(-c3ccccc3Cl)c(N(C)CC(C)C)n2n1 : 3.65

response.value for Cc1nc2nc(Cl)c(-c3c(F)cc(F)cc3F)c(N3CCSC3)n2n1 (field: logP) = 2.84

Sure, the documented logP for Cc1nc2nc(Cl)c(-c3c(F)cccc3F)c(NC(C)C3CCCCC3)n2n1 (centres unmarked) is 4

Reported logP for Cc1nc2nc(Cl)c(-c3c(F)cc(F)cc3F)c(N3CCCCC3C)n2n1 (centres unmarked) was 3.81

logP measured on CC(C)(C)CNc1c(-c2ccc(F)cc2F)c(Cl)nc2nc(C(F)(F)F)nn12 = 4.4
